# test-target: MTHFD2 recombinant human enzyme (Homo sapiens, UniProt P13995)
# Sequence (P13995 36-350): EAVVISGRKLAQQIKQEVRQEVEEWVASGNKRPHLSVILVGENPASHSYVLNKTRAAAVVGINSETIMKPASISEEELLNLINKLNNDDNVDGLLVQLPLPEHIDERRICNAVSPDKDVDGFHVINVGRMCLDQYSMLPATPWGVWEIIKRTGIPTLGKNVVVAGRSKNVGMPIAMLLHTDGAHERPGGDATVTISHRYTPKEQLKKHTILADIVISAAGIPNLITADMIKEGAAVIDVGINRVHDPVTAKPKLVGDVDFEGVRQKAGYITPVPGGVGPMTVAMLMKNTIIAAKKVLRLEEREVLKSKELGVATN
# method-notes: MTHFD2 inhibition assay (NAD(P)H-Glo luminescence)
# stated-conditions: selectivity of MTHFD2 inhibition over MTHFD1, band
quantity-name: MTHFD1/MTHFD2 IC50 ratio

Consider the reported MTHFD1/MTHFD2 IC50 ratio for these compounds:
[[record]]
compound = "CCOc1cc(C(=O)N2CCc3c(c(=O)oc4c(C)c(N5CCN(C)[C@@H](COC)C5)cc(CC)c34)C2)c(F)cc1C(=O)NS(=O)(=O)N1CCCC1 [Example 244]"
result = "J (>30)"

[[record]]
compound = "COC[C@H]1CN(c2ccc3c4c(c(=O)oc3c2Cl)CN(C(=O)c2ccc(C(=O)NS(=O)(=O)N(C)C)c(O[C@@H]3C[C@@H]5C[C@@H]5C3)c2F)CC4)CCN1C [Example 61]"
result = "F (<3)"

[[record]]
compound = "COC[C@H]1CN(c2ccc3c4c(c(=O)oc3c2Cl)CN(C(=O)c2ccc(C(=O)NS(=O)(=O)N3CCCC3)c(OC3CCC3)c2)CC4)CCN1C [Example 14]"
result = "F (<3)"

[[record]]
compound = "COC[C@H]1CN(c2cc(Cl)c3c4c(c(=O)oc3c2C)CN(C(=O)c2cc(N(C)C)c(C(=O)NS(=O)(=O)N3CCCC5(COC5)C3)cc2F)CC4)CCN1C [Example 272]"
result = "H (>9.0 to 30)"

[[record]]
compound = "COC[C@H]1CN(c2ccc3c4c(c(=O)oc3c2C)CN(C(=O)c2ccc(C(=O)NS(=O)(=O)C3(C)CC3)c(OC3CCCC3)c2)CC4)CCN1C [Example 8]"
result = "F (<3)"

[[record]]
compound = "CCOc1c(C(=O)NS(=O)(=O)N2C3CCC2CC3)ccc(C(=O)N2CCc3c(c(=O)oc4c(Cl)c(N5CCN(C)[C@@H](COC)C5)ccc34)C2)c1F [Example 209]"
result = "F (<3)"


Given the entry COC[C@H]1CN(c2cc(C)c3c4c(c(=O)oc3c2C)CN(C(=O)c2ccc(C(=O)NS(=O)(=O)N3CCCC3)c(O[C@@H]3C[C@@H]5C[C@@H]5C3)c2F)CC4)CCN1C [Example 35] , report its measured MTHFD1/MTHFD2 IC50 ratio.
F (<3)

Given the entry COC[C@H]1CN(c2cc(C)c3c4c(c(=O)oc3c2C)CN(C(=O)c2cc(N(C)C)c(C(=O)NS(=O)(=O)N(C3CC3)C3CC3)cc2F)CC4)CCN1C [Example 276] , report its measured MTHFD1/MTHFD2 IC50 ratio.
H (>9.0 to 30)

Given the entry COC[C@H]1CN(c2cc(C)c3c4c(c(=O)oc3c2C)CN(C(=O)c2ccc(C(=O)NS(=O)(=O)N3CCC(F)CC3)cc2F)CC4)CCN1C [Example 204] , report its measured MTHFD1/MTHFD2 IC50 ratio.
J (>30)

Given the entry COC[C@H]1CN(c2cc(C)c3c4c(c(=O)oc3c2C)CN(C(=O)c2cc(OC3CC3)c(C(=O)NS(=O)(=O)N3CCCC3)cc2F)CC4)CCN1C [Example 263] , report its measured MTHFD1/MTHFD2 IC50 ratio.
J (>30)

Given the entry COC[C@H]1CN(c2cc(C)c3c4c(c(=O)oc3c2C)CN(C(=O)c2ccc(C(=O)NS(=O)(=O)N3C5CCC3COC5)c(OC)c2F)CC4)CCN1C [Example 158] , report its measured MTHFD1/MTHFD2 IC50 ratio.
H (>9.0 to 30)

###

# test-target: MTHFD1 recombinant human enzyme (Homo sapiens, UniProt P11586)
# Sequence (P11586 2-291 limits assumed): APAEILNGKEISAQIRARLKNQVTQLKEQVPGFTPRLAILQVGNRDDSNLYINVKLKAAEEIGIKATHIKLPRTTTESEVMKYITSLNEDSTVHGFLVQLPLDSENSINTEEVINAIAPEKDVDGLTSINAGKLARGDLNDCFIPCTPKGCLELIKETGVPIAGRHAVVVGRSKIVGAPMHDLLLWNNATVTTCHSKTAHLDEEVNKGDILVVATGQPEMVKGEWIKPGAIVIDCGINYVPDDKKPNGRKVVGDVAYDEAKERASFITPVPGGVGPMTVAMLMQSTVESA
# method-notes: MTHFD1 inhibition assay (NAD(P)H-Glo luminescence)
# stated-conditions: MTHFD1 IC50, recombinant human enzyme 200 nM, NADP, band
quantity-name: IC50

[[record]]
molecule = "COC[C@H]1CN(c2cc(C)c3c4c(c(=O)oc3c2C)CN(C(=O)c2ccc(C(=O)NS(=O)(=O)N(C)C)c(N3CCCC5(CC5)C3)c2)CC4)CCN1C [Example 120]"
result = "100 to 1000 nM"


Given the entry COC[C@H]1CN(c2cc(Cl)c3c4c(c(=O)oc3c2C)CN(C(=O)c2cc(N(C)C)c(C(=O)NS(=O)(=O)N3CCC[C@@H]3COC)cc2F)CC4)CCN1C [Example 290] , report its measured IC50.
100 to 1000 nM

Given the entry COC[C@H]1CN(c2cc(C)c3c4c(c(=O)oc3c2C)CN(C(=O)c2ccc(C(=O)NS(=O)(=O)N3C[C@H]5CCC[C@H]5C3)cc2)CC4)CCN1C [Example 210] , report its measured IC50.
1000 to 5000 nM

###

# test-target: MTHFD1 recombinant human enzyme (Homo sapiens, UniProt P11586)
# method-notes: MTHFD1 inhibition assay (NAD(P)H-Glo luminescence)
# stated-conditions: MTHFD1 IC50, recombinant human enzyme 200 nM, NADP, band
pIC50: −log10 of the molar value.
Quick reference: pIC50 of the listed items.

[[record]]
compound = "COC[C@H]1CN(c2cc(C)c3c4c(c(=O)oc3c2C)CN(C(=O)c2ccc(C(=O)NS(=O)(=O)N(C)C)c(N3CC5CCC3C5)c2)CC4)CCN1C (stereo partly shown)"
quantity_name = "pIC50"
result = "8.00 to 9.00"

[[record]]
compound = "COC[C@H]1CN(c2cc(C)c3c4c(c(=O)oc3c2C)CN(C(=O)c2cc(OC(C)C)c(C(=O)NS(=O)(=O)N3CCCC3)c(C(F)(F)F)c2)CC4)CCN1C"
quantity_name = "pIC50"
result = "5.30 to 6.00"

[[record]]
compound = "COC[C@H]1CN(c2cc(C)c3c4c(c(=O)oc3c2C)CN(C(=O)c2cc(N(C)C)c(C(=O)NS(=O)(=O)N3CC5(CCC5)C3)cc2F)CC4)CCN1C"
quantity_name = "pIC50"
result = "6.00 to 7.00"

[[record]]
compound = "COC[C@H]1CN(c2ccc3c4c(c(=O)oc3c2C)CN(C(=O)c2c(C)cc(C(=O)NS(=O)(=O)N3CCCC3)c(OC3CCC3)c2F)CC4)CCN1C"
quantity_name = "pIC50"
result = "6.00 to 7.00"

[[record]]
compound = "COC[C@H]1CN(c2cc(Cl)c3c4c(c(=O)oc3c2C)CN(C(=O)c2cc(N(C)C)c(C(=O)NS(=O)(=O)N3CC[C@H](OC)C3)cc2F)CC4)CCN1C"
quantity_name = "pIC50"
result = "6.00 to 7.00"


Given the entry `COC[C@H]1CN(c2cc(F)c3c4c(c(=O)oc3c2C)CN(C(=O)c2cc(N(C)C)c(C(=O)NS(=O)(=O)N3CCCC3)cc2F)CC4)CCN1C` , report its measured pIC50.
6.00 to 7.00

Given the entry `CCOc1cc(C(=O)N2CCc3c(c(=O)oc4c(C)c(N5CCN(C)[C@@H](COC)C5)cc(C)c34)C2)c(F)cc1C(=O)NS(=O)(=O)N1CC2(CCC2)C1` , report its measured pIC50.
6.00 to 7.00

Given the entry COC[C@H]1CN(c2ccc3c4c(c(=O)oc3c2C)CN(C(=O)c2cc(N3CCC3)c(C(=O)NS(=O)(=O)N3CC5CC5C3)cc2F)CC4)CCN1C (stereo partly shown) , report its measured pIC50.
6.00 to 7.00

Given the entry `COC[C@H]1CN(c2cc(C)c3c4c(c(=O)oc3c2C)CN(C(=O)c2ccc(C(=O)NS(=O)(=O)N(C)C)c(N3CCC(C)(C)C3)c2)CC4)CCN1C` , report its measured pIC50.
8.00 to 9.00

Given the entry `COC[C@H]1CN(c2cc(C)c3c4c(c(=O)oc3c2C)CN(C(=O)c2cc(N(C)C)c(C(=O)NS(=O)(=O)N3C[C@@H]5C[C@H]3CO5)cc2F)CC4)CCN1C` , report its measured pIC50.
6.00 to 7.00

###

# test-target: MTHFD1 recombinant human enzyme (Homo sapiens, UniProt P11586)
# method-notes: MTHFD1 inhibition assay (NAD(P)H-Glo luminescence)
# stated-conditions: MTHFD1 IC50, recombinant human enzyme 200 nM, NADP, band
Quick reference: IC50 of the listed items.

[[record]]
molecule = "CCOc1cc(C(=O)N2CCc3c(c(=O)oc4c(C)c(N5CCN(C)[C@@H](COC)C5)cc(C)c34)C2)c(Cl)cc1C(=O)NS(=O)(=O)N1CCCC1 [Example 330]"
result = "100 to 1000 nM"

[[record]]
molecule = "COC[C@H]1CN(c2cc(C)c3c4c(c(=O)oc3c2C)CN(C(=O)c2ccc(OC3CCC3)c(C(=O)NS(=O)(=O)N3CCCC3)c2)CC4)CCN1C [Example 163]"
result = "> 5000 nM"


Now turn to the next molecule.
Given the entry COC[C@H]1CN(c2ccc3c4c(c(=O)oc3c2)CN(C(=O)c2ccc(C(=O)NS(=O)(=O)N3CCCC3)c(OC3CCC3)c2F)CC4)CCN1C [Example 182] , report its measured IC50.
1000 to 5000 nM
